Data origin, for the record: patent US9090658B2

Provide the reported Ki of each item.
# SUBJECT_OF_TEST: UniProt P00743
Structures can show the parent of a compound that is named as a salt.
// note: answer is a bare numeric in nM

Tell me the measured Ki of N=C(N)c1ccc(CNC(=O)CNC(=O)[C@@H](CCc2ccccc2)NS(=O)(=O)NC2CCCCC2)cc1.O=C(O)C(F)(F)F [Compound 18] , please.
110

Next record, please: N=C(N)c1ccc(CNC(=O)[C@H](CO)NC(=O)[C@H](CCc2ccncc2)NS(=O)(=O)Cc2ccccc2)cc1 [Compound 3b, Bzls-D,L-homoAla(4-Pyr)-Ser-4Amba×2 TFA]
95

Then what about the compound N=C(N)c1ccc(CNC(=O)[C@H](CO)NC(=O)C(CCc2ccncc2)NS(=O)(=O)Cc2ccncc2)cc1 (stereo partly drawn) [Compound 4] ?
97

---

Can you tell me selectivity ratio SR (SR = Ki thrombin/Ki factor Xa) for the items I'm about to list?
# SUBJECT_OF_TEST: factor Xa (Bos taurus)
# Construct: purchased Diagnostic Reagents Ltd, Thame, GB
# Sequence (P00743 234-492 limits assumed): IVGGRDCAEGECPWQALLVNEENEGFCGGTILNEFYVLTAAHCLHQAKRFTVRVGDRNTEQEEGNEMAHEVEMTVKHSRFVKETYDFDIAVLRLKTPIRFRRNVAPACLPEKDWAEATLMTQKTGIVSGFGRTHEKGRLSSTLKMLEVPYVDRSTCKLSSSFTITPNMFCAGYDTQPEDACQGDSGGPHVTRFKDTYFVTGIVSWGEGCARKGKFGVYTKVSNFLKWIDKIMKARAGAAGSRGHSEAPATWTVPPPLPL
# Sequence (P00743 41-180 partner limits assumed): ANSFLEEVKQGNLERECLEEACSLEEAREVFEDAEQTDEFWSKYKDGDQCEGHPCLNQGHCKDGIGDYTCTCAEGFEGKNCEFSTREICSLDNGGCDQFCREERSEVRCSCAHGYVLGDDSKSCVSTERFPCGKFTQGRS
# EXPERIMENT_SUMMARY: Determination of the inhibitory constants for factor Xa (chromogenic substrate Moc-D-Nle-Gly-Arg-pNA, Dixon method)
# Assay type: biochemical, bovine
No unit in the answer, only the number.

selectivity ratio SR (SR = Ki thrombin/Ki factor Xa) for N=C(N)c1ccc(CNC(=O)CNC(=O)[C@@H](CCc2ccccc2)NS(=O)(=O)Cc2cccc(O)c2)cc1 [Compound 42] ?
288

Do the same for N=C(N)c1ccc(CNC(=O)CNC(=O)C(CCc2ccncc2)NS(=O)(=O)Cc2ccc(N)cc2)cc1 (stereo not drawn) [Compound 28] please
454

Same read-out for CCOC(=O)CC[C@H](NC(=O)[C@@H](CCc1ccc(O)cc1)NS(=O)(=O)Cc1ccccc1)C(=O)NCc1ccc(C(=N)N)cc1 [Compound 35] ?
200
